Measured Percent Effect by item
- System: Wolbachia pipientis
- Protocol Text: Anti-Wolbachia Cell-Based Screen
- Assay type: functional
- Design: scale not given: in the data most compounds retested in dose-response had high values
- Condition Details: 5 µM
Out of some 48,000 compounds screened, about 13,000 (27%) showed an effect of 50% or more. The list shows a part of the results.
Measured Endpoint: Percent Effect (%)

[[record]]
compound = "NC(=O)COc1ccc(C2NC(=O)CN2Cc2ccc(Br)cc2)cc1 (centres undefined)"
measured_endpoint = "Percent Effect"
recorded_result = 110.3

[[record]]
compound = "Cc1ncc2c(n1)CCCC2NC(=O)c1ccncc1 (centres undefined)"
measured_endpoint = "Percent Effect"
recorded_result = 4.921

[[record]]
compound = "Cc1ncc2c(n1)CCCC2NC(=O)c1ccccc1Cn1cncn1 (centres undefined)"
measured_endpoint = "Percent Effect"
recorded_result = -4.956

[[record]]
compound = "C=C(C)COc1cccc(CNC(COC)c2ccnn2C)c1 (centres undefined)"
measured_endpoint = "Percent Effect"
recorded_result = 4.309

[[record]]
compound = "O=C(Nc1ccc(Cn2cccn2)cc1)N1CCC(CO)CC1"
measured_endpoint = "Percent Effect"
recorded_result = 5.025

[[record]]
compound = "Cc1ccccc1C(=O)NC1CCN(c2cnn(C)c2)C1=O (centres undefined)"
measured_endpoint = "Percent Effect"
recorded_result = -0.04337

[[record]]
compound = "O=C1CC(c2cccnc2)c2c(c(C(=O)O)cn2-c2ccccc2)N1 (centres undefined)"
measured_endpoint = "Percent Effect"
recorded_result = 6.777

[[record]]
compound = "CC1CCCCN1S(=O)(=O)NCCN/C(O)=C1/N=CC=CC1=O (centres undefined)"
measured_endpoint = "Percent Effect"
recorded_result = -4.587

[[record]]
compound = "Cc1ccoc1C(=O)N1CCOC2(CCCC2)C1"
measured_endpoint = "Percent Effect"
recorded_result = -7.54

[[record]]
compound = "Cc1ncc2c(n1)CCCC2NC(=O)c1ccc(Cn2cccn2)cc1 (centres undefined)"
measured_endpoint = "Percent Effect"
recorded_result = 102.9

[[record]]
compound = "CCc1ncc(CN2CCc3nc4sc(C)cc4c(=O)n3CC2)cn1"
measured_endpoint = "Percent Effect"
recorded_result = 98.79

[[record]]
compound = "Cc1nc2c(c(=O)n1C)CCN(Cc1cc3cc[nH]c3cn1)CC2"
measured_endpoint = "Percent Effect"
recorded_result = -4.621

[[record]]
compound = "CCc1ncc(CN2CCCC3(CCC(=O)N(CCC(C)C)C3)C2)cn1 (centres undefined)"
measured_endpoint = "Percent Effect"
recorded_result = -16.36

[[record]]
compound = "CCCc1cc(N2CCCCC2Cn2cc(C)cn2)n2ncnc2n1 (centres undefined)"
measured_endpoint = "Percent Effect"
recorded_result = -0.9521

[[record]]
compound = "Cc1cc2c(=O)n3c(nc2s1)CCN(Cc1cncn1C)CC3.Cl"
measured_endpoint = "Percent Effect"
recorded_result = 111.2

[[record]]
compound = "Cc1cc(CN2CCN(CC3CC3)[C@@H]3CS(=O)(=O)C[C@@H]32)cc(C)c1O"
measured_endpoint = "Percent Effect"
recorded_result = 22.76

[[record]]
compound = "COc1cc(OC)cc(C2NC(=O)CN2Cc2ccc(Br)cc2)c1 (centres undefined)"
measured_endpoint = "Percent Effect"
recorded_result = 85.78

[[record]]
compound = "Cl.NC(=O)COc1ccc(CNCc2ccc(F)c(F)c2)cc1"
measured_endpoint = "Percent Effect"
recorded_result = -10.35

[[record]]
compound = "Cc1nc(-c2cc(F)c3c(c2)CC(CN)O3)c[nH]1 (centres undefined)"
measured_endpoint = "Percent Effect"
recorded_result = 4.344

[[record]]
compound = "Cc1cc2c(=O)n3c(nc2s1)CCN(Cc1cnc(C(C)C)nc1)CC3"
measured_endpoint = "Percent Effect"
recorded_result = -3.495

[[record]]
compound = "Cc1cc(C2NC(=O)CN2Cc2ccc(Br)cc2)cc(C)c1O (centres undefined)"
measured_endpoint = "Percent Effect"
recorded_result = 98.83

[[record]]
compound = "Cc1nc[nH]c1CN1CCn2nc(CN3Cc4ccccc4C3)cc2C1"
measured_endpoint = "Percent Effect"
recorded_result = 5.533

[[record]]
compound = "Cc1ncc2c(n1)CCCC2NC(=O)c1ccccc1C(=O)O (centres undefined)"
measured_endpoint = "Percent Effect"
recorded_result = 116.6

[[record]]
compound = "Cc1cc2c(=O)n3c(nc2s1)CCN(Cc1[nH]cnc1C)CC3.Cl"
measured_endpoint = "Percent Effect"
recorded_result = 117

